# Test system: H1975OR
# test_method_notes: CCK-8 tumor cell proliferation, H1975OR
# Type: cell-based
# particulars: H1975OR cells (Osimertinib resistant), 72 hours

smiles_record: C=CC(=O)Nc1cccc(-n2c(=O)cc(C)c3cnc(Nc4ccc(N5CCN(CCCCCCCCNC(=O)CC67CC8CC(CC(C8)C6)C7)CC5)cc4OC)nc32)c1
IC50: 0.074 µM
--
smiles_record: C=CC(=O)Nc1cccc(-n2c(=O)cc(C)c3cnc(Nc4ccc(N5CCN(CCCCCCNC(=O)CC67CC8CC(CC(C8)C6)C7)CC5)cc4OC)nc32)c1
IC50: 0.167 µM
--
smiles_record: COc1cc(N2CCN(CCCCCCCCNC(=O)C34CC5CC(CC(C5)C3)C4)CC2)ccc1Nc1ncc2c(C)cc(=O)n(-c3cccc(NC(=O)C4CC4)c3)c2n1
IC50: 0.32 µM
--
smiles_record: COc1cc(N2CCN(CCCCCCCCCCCCNC(=O)CC34CC5CC(CC(C5)C3)C4)CC2)ccc1Nc1ncc2c(C)cc(=O)n([C@H]3CCN(C(=O)C4CC4)C3)c2n1
IC50: 6.31 µM
--
smiles_record: COc1cc(N2CCN(CCCCCCCCCCCCNC(=O)CC34CC5CC(CC(C5)C3)C4)CC2)ccc1Nc1ncc2c(C)cc(=O)n(-c3cccc(NC(C)=O)c3)c2n1
IC50: 0.0236 µM
--
smiles_record: COc1cc(N2CCN(CCCCCCCCCCCCNC(=O)CC34CC5CC(CC(C5)C3)C4)CC2)ccc1Nc1ncc2c(C)cc(=O)n(-c3ccccc3)c2n1
IC50: 0.107 µM
--
smiles_record: COc1cc(N2CCN(CCCCCCCCCCCCNC(=O)CC34CC5CC(CC(C5)C3)C4)CC2)ccc1Nc1ncc2c(C)cc(=O)n(-c3cccc(N(C)C)c3)c2n1
IC50: 0.172 µM
--
smiles_record: COc1cc(N2CCN(CCCCCCCCNC(=O)CC34CC5CC(CC(C5)C3)C4)CC2)ccc1Nc1ncc2c(C)cc(=O)n(-c3cccc(NC(=O)C4CC4)c3)c2n1
IC50: 0.0224 µM
--
smiles_record: COc1cc(N2CCN(CCCCCCCCCCCCNC(=O)CC34CC5CC(CC(C5)C3)C4)CC2)ccc1Nc1ncc2c(C)cc(=O)n(-c3cccc(NC(=O)C4CC4)c3)c2n1
IC50: 0.007 µM
--
smiles_record: C=CC(=O)Nc1cccc(-n2c(=O)cc(C)c3cnc(Nc4ccc(N5CCN(CCOCCOCCNC(=O)CC67CC8CC(CC(C8)C6)C7)CC5)cc4OC)nc32)c1
IC50: 2.01 µM
--
smiles_record: COc1cc(N2CCN(CCCCCCCCCCCCNC(=O)CC34CC5CC(CC(C5)C3)C4)CC2)ccc1Nc1ncc2c(C)cc(=O)n(-c3cccc(NC(=O)C(C)(C)C)c3)c2n1
IC50: 0.136 µM
--
smiles_record: COc1cc(N2CCN(CCCCCCCCCCCCNC(=O)CC34CC5CC(CC(C5)C3)C4)CC2)ccc1Nc1ncc2c(C)cc(=O)n(-c3cccc(NCC4CC4)c3)c2n1
IC50: 3.46 µM
--
smiles_record: COc1cc(N2CCN(CCCCCCCCNC(=O)CC34CC5CC(CC(C5)C3)C4)CC2)ccc1Nc1ncc2c(C)cc(=O)n(-c3cccc(NC(=O)C(C)(C)C)c3)c2n1
IC50: 0.105 µM
